Ki for assorted compounds
target: human cloned 5-HT2B receptors (Homo sapiens); construct: expressed in transfected cells; host or cells: CHO-K1; assay: Human cloned 5-HT2B receptor binding assay; details: [3H]LSD (1 nM) displacement, membranes of CHO-K1 cells expressing cloned 5-HT2B receptor; read-out: 5-HT2B pKi (converted)
Structures can show the parent of a compound that is named as a salt.
measuredProperty: Ki

> print(dat)
                                   compound                              systemtested  endpointvalue
1  CC(=O)c1cccc(-c2cccc(Nc3cc(C)nc(N)n3)c2)c1 [Compound 10C, trifluoroacetic acid]  human cloned 5-HT2B receptors (Homo sapiens)      < 1000 nM
2                Cc1cc(Nc2cccc(F)c2)nc(N)n1  human cloned 5-HT2B receptors (Homo sapiens)      < 1000 nM
3  CC(=O)Nc1nc(-c2cccc3c(Br)cccc23)c[nH]1 [Compound 103H]  human cloned 5-HT2B receptors (Homo sapiens)       < 100 nM
4  CC(=O)Nc1nc(-c2cccc3ccccc23)c[nH]1 [Compound 103N]  human cloned 5-HT2B receptors (Homo sapiens)      < 1000 nM
5  COc1ccccc1-c1cccc(Nc2nc(N)nn2C)c1 [Compound 406B]  human cloned 5-HT2B receptors (Homo sapiens)       < 316 nM
6              Cc1cc(Nc2cc(Br)ccc2C)nc(N)n1  human cloned 5-HT2B receptors (Homo sapiens)      < 1000 nM
7  Cc1[nH]c(N)nc1-c1cccc2ccccc12 [Compound 104I]  human cloned 5-HT2B receptors (Homo sapiens)       < 100 nM
8  Cc1cc(Nc2ccc(C)c(Br)c2)nc(N)n1 [Compound 2S, hydrochloride]  human cloned 5-HT2B receptors (Homo sapiens)       < 100 nM
9  Cc1cc(Nc2ccc(-c3ccccc3)cc2)nc(N)n1 [Compound 11A, trifluoroacetic acid]  human cloned 5-HT2B receptors (Homo sapiens)        < 10 nM

====

Ki for assorted compounds
biological target: human cloned 5-HT2B receptors (Homo sapiens, UniProt P41595); construct: expressed in transfected cells; host or cells: CHO-K1; assay: Human cloned 5-HT2B receptor binding assay; settings: [3H]LSD (1 nM) displacement, membranes of CHO-K1 cells expressing cloned 5-HT2B receptor; read-out: 5-HT2B pKi (converted)
Sequence (P41595 whole entry): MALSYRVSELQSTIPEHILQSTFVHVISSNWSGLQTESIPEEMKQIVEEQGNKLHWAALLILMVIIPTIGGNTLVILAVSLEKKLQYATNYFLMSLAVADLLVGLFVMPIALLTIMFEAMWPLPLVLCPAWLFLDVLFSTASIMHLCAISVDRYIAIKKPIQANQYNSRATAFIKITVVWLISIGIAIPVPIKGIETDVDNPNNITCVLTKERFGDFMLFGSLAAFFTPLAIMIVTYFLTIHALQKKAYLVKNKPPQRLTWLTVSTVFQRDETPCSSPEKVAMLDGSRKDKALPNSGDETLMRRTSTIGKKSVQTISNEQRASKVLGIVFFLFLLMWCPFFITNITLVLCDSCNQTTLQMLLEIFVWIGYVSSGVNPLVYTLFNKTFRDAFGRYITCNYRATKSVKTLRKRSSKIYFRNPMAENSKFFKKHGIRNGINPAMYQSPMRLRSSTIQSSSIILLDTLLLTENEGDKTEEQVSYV
Counter-ions that a name gives are not always drawn.
measuredProperty: Ki

> print(dat)
                                    compound  endpointvalue
 1  CC(=O)Nc1nc(-c2cccc3sccc23)c[nH]1 [Compound 103L]       < 100 nM
 2  CC(=O)Nc1ccc(Nc2cc(C)nc(N)n2)cc1 [Compound 2V, hydrochloride]      < 1000 nM
 3  Cn1nc(N)nc1Nc1cccc(-c2ccccc2)c1 [Compound 406A]       < 316 nM
 4  CC(=O)Nc1nc(-c2ccc(F)c3ccccc23)c[nH]1 [Compound 103F]       < 100 nM
 5  Cc1cccc(-c2ccc(Nc3cc(C)nc(N)n3)cc2)c1 [Compound 11B]        < 10 nM
 6  Cc1ccc(Nc2cc(C)nc(N)n2)cc1 [Compound 2U, hydrochloride]      < 1000 nM
 7  Cc1cc(Nc2cccc3c2CCC3)nc(N)n1 [Compound 2R, hydrochloride]      < 1000 nM
 8         Nc1nc(-c2cccc(-c3ccccc3)c2)c[nH]1       < 100 nM
 9  COc1ccc2ccccc2c1-c1nc(N)[nH]c1C [Compound 104J]       < 100 nM
10  Nc1ncc(-c2cccc(-c3ccccc3Cl)c2)o1 [Compound 209E]       < 316 nM
11  Cc1cc(Nc2ccc(Cl)c(Cl)c2)nc(N)n1 [Compound 2N, hydrochloride]      < 1000 nM
12  Cc1cc(Nc2cc(Br)ccc2O)nc(N)n1 [Compound 2O, hydrochloride]      < 1000 nM
13  COc1ccccc1-c1cccc(-c2cnc(N)o2)c1 [Compound 209G, trifluoroacetic acid]       < 100 nM
14  Nc1nc(-c2cccc3ccc(Br)cc23)c[nH]1 [Compound 104G]       < 100 nM
15  Cc1cc(Nc2cccc(Br)c2C)nc(N)n1 [Compound 2T, hydrochloride]      < 1000 nM
16  CC(=O)Nc1nc(-c2c(O)ccc3ccccc23)c[nH]1 [Compound 103Q]      < 1000 nM
17  Cc1cc(Nc2ccc3c(c2)CCC3)nc(N)n1 [Compound 2J, hydrochloride]       < 100 nM
